Numbers sourced from the RNAGym collection of RNA variant scans (doi:10.1093/nar/gkz1192).

B1: CPEB3 Ribozyme (parent)
chain: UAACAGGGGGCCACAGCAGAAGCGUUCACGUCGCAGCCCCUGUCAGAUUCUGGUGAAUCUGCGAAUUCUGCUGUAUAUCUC

variants of: B1; assay: self-cleavage, relative activity (ratio to wild type); higher = more cleavage; in vitro, sequencing
Is self-cleavage at least 0.2? Then MET. If not, NOT MET.

Check out these entries, answers already filled in.
G16C A45U :: NOT MET
C50U G63U :: MET
A56C U69C :: NOT MET

Q. For this variant, is measured self-cleavage 0.2 or higher? U43A G70U
A. MET

Q. For this variant, is measured self-cleavage 0.2 or higher? A18C C68A
A. NOT MET

Q. For this variant, is measured self-cleavage 0.2 or higher? A2C U66C
A. MET

Q. For this variant, is measured self-cleavage 0.2 or higher? A20G C38G
A. NOT MET

Q. For this variant, is measured self-cleavage 0.2 or higher? A45U U67C
A. MET

Q. For this variant, is measured self-cleavage 0.2 or higher? G73U C79U
A. MET

Q. For this variant, is measured self-cleavage 0.2 or higher? G8C C27A
A. NOT MET

Q. For this variant, is measured self-cleavage 0.2 or higher? A18U U80G
A. MET

Q. For this variant, is measured self-cleavage 0.2 or higher? C37A U43C
A. MET
